Assay: WST-1 cytotoxicity test (cell viability)
Settings: human, human pulmonary (lung) fibroblasts
Mark 1 for viability at 24 h, 30 µM under 90%, 0 if at or over.

molecule="Br.Nc1nc2c(-c3ccccc3Cl)cccc2[nH]1 [Compound 49d]" category_label=1
molecule="NC1=Nc2cccc(-c3ccccc3)c2CN1 [Compound 37a]" category_label=0
molecule=N=C(N)Nc1cccc(-c2cc(Cl)ccc2Cl)n1 category_label=1
molecule=N=C(N)Nc1cccc(-c2ccccc2)n1 category_label=0
molecule="O=C1NCCc2[nH]c(-c3ccncc3)cc21 [PHA767491, reference compound]" category_label=1
molecule="Br.NC1=Nc2cccc(-c3ccccc3Cl)c2CN1 [Compound 37f]" category_label=1
molecule=N=C(N)Nc1cccc(-c2ccccc2F)n1 category_label=1

====

Target: human synthetic MSK1 (14-438-K, Millipore) (Homo sapiens)
Construct: purchased Millipore 14-438-K
Assay: MSK1 enzymatic inhibition assay (Kinase-Glo luminescence)
Format: biochemical
Details: tested at 1 and 10 µM
assay readout: MSK1 inhibitory activity (in words)

compound="COc1cccc(-c2cccc(NC(=N)N)n2)c1 [Compound 1f]" result=inactive
compound="Nc1nc2c(-c3ccccc3Cl)cccc2s1 [Compound 67]" result=inactivity
compound="N=C(N)Nc1cccc(Cc2ccccc2)n1 [Compound 17]" result=inactive
compound="c1ccc(NC2=Nc3cccc(-c4ccccc4)c3CN2)cc1 [Compound 60b]" result=inactivity
compound="N=C(N)Nc1cccc(-c2ccc(Cl)cc2)n1 [Compound 1b]" result=inactive

====

Target: human synthetic MSK1 (14-438-K, Millipore) (Homo sapiens)
Construct: purchased Millipore 14-438-K
Experiment: MSK1 enzymatic inhibition assay (Kinase-Glo luminescence)
Assay type: biochemical
Conditions: compound at 10 µM; ± Standard Deviation (n = 4); read-out: MSK1 % Inhibition 10 µM
assay readout: inhibition at 10 µM (%)

compound=COc1ccc(-c2cccc(NC(=N)N)n2)cc1 units_text=% readout_number=-3
compound=N=C(N)Nc1cccc(-c2ccc(C(F)(F)F)cc2)n1.O=C(O)C(F)(F)F units_text=% readout_number=-1
compound="O=S(=O)(NCCNC/C=C/c1ccc(Br)cc1)c1cccc2cnccc12 [Compound H89, H89, reference compound]" units_text=% readout_number=93
compound=N=C(N)Nc1ccc(-c2ccccc2)cn1 units_text=% readout_number=-11
compound="Br.COc1ccc(-c2cccc3[nH]c(N)nc23)cc1 [Compound 49c]" units_text=% readout_number=25

====

Target: human synthetic MSK1 (14-438-K, Millipore) (Homo sapiens, UniProt O75582)
Construct: purchased Millipore 14-438-K
Sequence (O75582 whole entry): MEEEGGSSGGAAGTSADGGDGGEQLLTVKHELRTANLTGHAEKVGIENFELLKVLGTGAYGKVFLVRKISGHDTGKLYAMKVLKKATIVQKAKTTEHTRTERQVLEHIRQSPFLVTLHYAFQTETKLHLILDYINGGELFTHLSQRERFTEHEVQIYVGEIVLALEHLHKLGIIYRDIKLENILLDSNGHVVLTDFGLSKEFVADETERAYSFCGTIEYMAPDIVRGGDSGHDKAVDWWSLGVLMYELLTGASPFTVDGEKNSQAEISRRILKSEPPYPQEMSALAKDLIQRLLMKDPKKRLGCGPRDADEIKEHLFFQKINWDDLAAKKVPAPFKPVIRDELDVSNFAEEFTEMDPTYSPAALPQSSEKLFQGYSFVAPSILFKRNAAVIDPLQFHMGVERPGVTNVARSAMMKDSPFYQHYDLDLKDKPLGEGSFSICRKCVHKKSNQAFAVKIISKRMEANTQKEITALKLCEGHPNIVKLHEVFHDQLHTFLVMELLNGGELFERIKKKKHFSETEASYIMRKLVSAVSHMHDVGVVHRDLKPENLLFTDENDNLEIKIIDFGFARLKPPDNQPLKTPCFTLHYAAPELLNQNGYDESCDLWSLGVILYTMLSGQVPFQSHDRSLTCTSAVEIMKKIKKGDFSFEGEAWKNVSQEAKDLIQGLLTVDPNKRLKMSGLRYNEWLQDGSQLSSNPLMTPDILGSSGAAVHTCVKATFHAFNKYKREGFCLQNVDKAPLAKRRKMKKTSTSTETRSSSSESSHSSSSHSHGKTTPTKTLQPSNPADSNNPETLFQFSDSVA
Test: MSK1 enzymatic inhibition assay (Kinase-Glo luminescence)
Type: biochemical
Details: compound at 10 µM; ± Standard Deviation (n = 4); read-out: MSK1 % Inhibition 10 µM
assay readout: inhibition at 10 µM (%)

molecule="N=C(N)Nc1cccc(-c2ccccc2F)n1 [Compound 1j]" assay_readout="inhibition at 10 µM" readout_number=45
molecule="N=C(N)Nc1cccc(-c2ccc(Cl)cc2)n1 [Compound 1b]" assay_readout="inhibition at 10 µM" readout_number=23
molecule="N=C(N)Nc1ncccc1-c1ccccc1 [Compound 14]" assay_readout="inhibition at 10 µM" readout_number=11
molecule="N=C(N)Nc1cccc(-c2ccccc2Cl)n1 [Compound 1k]" assay_readout="inhibition at 10 µM" readout_number=95
molecule="O=c1[nH]c2cccc(-c3ccccc3Cl)c2[nH]1 [Compound 64]" assay_readout="inhibition at 10 µM" readout_number=0
molecule="Nc1nc2c(-c3ccccc3Cl)cccc2n1CCc1ccccc1 [Compound 74a]" assay_readout="inhibition at 10 µM" readout_number=41
molecule="N=C(N)Nc1cccc(-c2ccoc2)n1.O=C(O)C(F)(F)F [Compound 1g]" assay_readout="inhibition at 10 µM" readout_number=33
molecule="Br.Nc1nc2c(-c3cc(Cl)ccc3Cl)cccc2[nH]1 [Compound 49f]" assay_readout="inhibition at 10 µM" readout_number=61
molecule="N=C(N)Nc1cccc(-c2cccc(Cl)c2)n1 [Compound 1e]" assay_readout="inhibition at 10 µM" readout_number=45
molecule="O=S(=O)(c1cccc2cnccc12)N1CCCNCC1 [Fasudil, fasudil, reference compound]" assay_readout="inhibition at 10 µM" readout_number=82
molecule="N=C(N)Nc1cccc(-c2cc3ccccc3o2)n1.O=C(O)C(F)(F)F [Compound 1h]" assay_readout="inhibition at 10 µM" readout_number=1
molecule="Nc1nc2c(-c3ccccc3Cl)cccc2s1 [Compound 67]" assay_readout="inhibition at 10 µM" readout_number=4
molecule="Br.COc1ccccc1-c1cccc2[nH]c(N)nc12 [Compound 49g]" assay_readout="inhibition at 10 µM" readout_number=39
molecule="N=C(N)Nc1cc(-c2ccccc2)ccn1 [Compound 13]" assay_readout="inhibition at 10 µM" readout_number=5
molecule="Br.NC1=Nc2cccc(-c3ccccc3Cl)c2CN1 [Compound 37f]" assay_readout="inhibition at 10 µM" readout_number=38
molecule="COc1ccccc1-c1cccc(NC(=N)N)n1 [Compound 1n]" assay_readout="inhibition at 10 µM" readout_number=66
molecule="N=C(N)Nc1cccc(CCc2ccccc2)n1 [Compound 24]" assay_readout="inhibition at 10 µM" readout_number=-8
molecule="N=C(N)Nc1cccc(-c2cc(Cl)ccc2Cl)n1 [Compound 1q]" assay_readout="inhibition at 10 µM" readout_number=84
molecule="N=C(N)Nc1cccc(-c2ccc(Cl)cc2Cl)n1 [Compound 1p]" assay_readout="inhibition at 10 µM" readout_number=31
molecule="Nc1nc2c(-c3cccc(Cl)c3Cl)cccc2[nH]1 [Compound 49e]" assay_readout="inhibition at 10 µM" readout_number=75
molecule="CCCNC1=Nc2cccc(-c3ccccc3)c2CN1 [Compound 60a]" assay_readout="inhibition at 10 µM" readout_number=2
molecule="NC1=Nc2ccc(-c3ccccc3)cc2CN1 [Compound 43]" assay_readout="inhibition at 10 µM" readout_number=9
